- assay target: T1, DLG3_3, Q92796
- T1 sequence (Q92796 374-475, limits assumed, looked up): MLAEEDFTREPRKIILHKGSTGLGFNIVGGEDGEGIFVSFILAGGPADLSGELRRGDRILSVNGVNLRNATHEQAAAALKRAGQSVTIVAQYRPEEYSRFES
- assay procedure: holdup assay
- Design: key: below the threshold = too weak to quantify, mostly under pKd 3.1 to 4
- condition label: plain residues with an end cap or a label only (N-terminal biotin on a linker: ado-ado)
pKd below 4 gives Not fulfilled; pKd at or above it gives Fulfilled.

Examples with answers:
TNSRHGETTV [FZD2, Q14332]
Fulfilled
DTKNYKQTSV [CRIPT, Q9P021]
Fulfilled
TGLWKHETTV [ADGRA3, Q8IWK6]
Fulfilled
RQKEVRESKC [SCN8A, Q9UQD0]
Not fulfilled

(Q) // inclusive: pKd at least 4? input: KRPEMTSSSV [MUC3A, MUC3B, Q02505;Q9H195]
(A) Not fulfilled
